Target under test: CDK9/CyclinT1 (Homo sapiens)
Sequence (P50750 whole entry, species assumed): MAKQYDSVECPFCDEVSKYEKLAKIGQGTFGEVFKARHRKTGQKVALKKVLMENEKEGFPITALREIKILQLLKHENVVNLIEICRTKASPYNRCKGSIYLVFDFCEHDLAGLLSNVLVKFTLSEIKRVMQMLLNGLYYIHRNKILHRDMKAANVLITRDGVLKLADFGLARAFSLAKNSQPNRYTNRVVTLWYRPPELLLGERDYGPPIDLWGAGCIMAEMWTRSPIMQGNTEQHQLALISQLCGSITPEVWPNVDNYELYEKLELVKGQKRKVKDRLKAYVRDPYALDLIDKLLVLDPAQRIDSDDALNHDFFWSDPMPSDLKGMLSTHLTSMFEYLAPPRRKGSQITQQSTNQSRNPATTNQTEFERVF
Sequence (O60563 whole entry partner, species assumed): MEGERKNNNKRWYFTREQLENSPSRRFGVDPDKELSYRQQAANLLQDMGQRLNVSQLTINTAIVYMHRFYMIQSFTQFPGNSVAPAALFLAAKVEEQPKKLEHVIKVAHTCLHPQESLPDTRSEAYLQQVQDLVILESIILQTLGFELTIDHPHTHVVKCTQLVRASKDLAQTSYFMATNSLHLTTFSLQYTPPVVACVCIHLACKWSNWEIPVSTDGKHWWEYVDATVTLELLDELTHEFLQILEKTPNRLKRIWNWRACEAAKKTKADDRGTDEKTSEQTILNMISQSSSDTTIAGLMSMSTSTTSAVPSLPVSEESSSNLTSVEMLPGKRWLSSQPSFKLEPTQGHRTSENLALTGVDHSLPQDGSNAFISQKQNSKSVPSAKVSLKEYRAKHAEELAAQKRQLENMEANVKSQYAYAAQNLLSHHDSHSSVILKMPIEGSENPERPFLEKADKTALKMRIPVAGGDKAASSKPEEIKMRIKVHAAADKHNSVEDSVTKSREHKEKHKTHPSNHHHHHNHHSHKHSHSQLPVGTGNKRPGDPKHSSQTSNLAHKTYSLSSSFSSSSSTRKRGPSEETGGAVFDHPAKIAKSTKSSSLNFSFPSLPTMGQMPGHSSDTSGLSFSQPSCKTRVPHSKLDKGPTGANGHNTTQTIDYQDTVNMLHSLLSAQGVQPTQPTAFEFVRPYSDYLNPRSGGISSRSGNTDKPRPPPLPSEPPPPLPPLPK
Assay procedure: ADP Glo kinase assay, CDK9/CyclinT1
Stated conditions: CDK9/CyclinT1; Km ATP; read-out: Enzymatic inhibition, Ki, CDK9 T1
Protocol: Test compounds are used in 1:3 serial dilutions for 10 concentrations (from 10-0.0005 μM) in 0.5% DMSO. […] The kinase reactions are run for optimised time period at room temperature and then the reaction is stopped by adding 5 μL of ADP Glo reagent.
Ki by entry:

Look over these answered cases.
Compound	Ki
CS(=O)(=O)N1CCN(c2ccc(Nc3nccc(-c4cnc5ccc(Br)cn45)n3)cn2)CC1 [Compound 16]	77 nM
CS(=O)(=O)N1CCN(c2ccc(Nc3nccc(-c4cnc5ccc(-c6ccccc6)cn45)n3)cn2)CC1 [Compound 17]	28 nM
c1ccc(-c2ccc3ncc(-c4ccnc(Nc5ccc(N6CCCC6)nc5)n4)n3c2)cc1 [Compound 27]	> 5000 nM

Turning now to a further record.
Ask | Quick one: Ki for CN(C)c1ccc(Nc2nccc(-c3cnc4ccc(-c5ccccc5)cn34)n2)cn1 [Compound 66] ?
Reply | 468 nM
